target: human NMDA receptor GluN1-GluN2D (Homo sapiens, UniProt O15399+Q05586); construct: expressed in transfected cells; host or cells: CHO; experiment: FLIPR calcium assay, test item effect on L-glutamate CRC, GluN1-GluN2D-CHO; type: cell-based; details: operational analysis for allosteric modulators
Sequence (O15399 28-1336, other chains not shown): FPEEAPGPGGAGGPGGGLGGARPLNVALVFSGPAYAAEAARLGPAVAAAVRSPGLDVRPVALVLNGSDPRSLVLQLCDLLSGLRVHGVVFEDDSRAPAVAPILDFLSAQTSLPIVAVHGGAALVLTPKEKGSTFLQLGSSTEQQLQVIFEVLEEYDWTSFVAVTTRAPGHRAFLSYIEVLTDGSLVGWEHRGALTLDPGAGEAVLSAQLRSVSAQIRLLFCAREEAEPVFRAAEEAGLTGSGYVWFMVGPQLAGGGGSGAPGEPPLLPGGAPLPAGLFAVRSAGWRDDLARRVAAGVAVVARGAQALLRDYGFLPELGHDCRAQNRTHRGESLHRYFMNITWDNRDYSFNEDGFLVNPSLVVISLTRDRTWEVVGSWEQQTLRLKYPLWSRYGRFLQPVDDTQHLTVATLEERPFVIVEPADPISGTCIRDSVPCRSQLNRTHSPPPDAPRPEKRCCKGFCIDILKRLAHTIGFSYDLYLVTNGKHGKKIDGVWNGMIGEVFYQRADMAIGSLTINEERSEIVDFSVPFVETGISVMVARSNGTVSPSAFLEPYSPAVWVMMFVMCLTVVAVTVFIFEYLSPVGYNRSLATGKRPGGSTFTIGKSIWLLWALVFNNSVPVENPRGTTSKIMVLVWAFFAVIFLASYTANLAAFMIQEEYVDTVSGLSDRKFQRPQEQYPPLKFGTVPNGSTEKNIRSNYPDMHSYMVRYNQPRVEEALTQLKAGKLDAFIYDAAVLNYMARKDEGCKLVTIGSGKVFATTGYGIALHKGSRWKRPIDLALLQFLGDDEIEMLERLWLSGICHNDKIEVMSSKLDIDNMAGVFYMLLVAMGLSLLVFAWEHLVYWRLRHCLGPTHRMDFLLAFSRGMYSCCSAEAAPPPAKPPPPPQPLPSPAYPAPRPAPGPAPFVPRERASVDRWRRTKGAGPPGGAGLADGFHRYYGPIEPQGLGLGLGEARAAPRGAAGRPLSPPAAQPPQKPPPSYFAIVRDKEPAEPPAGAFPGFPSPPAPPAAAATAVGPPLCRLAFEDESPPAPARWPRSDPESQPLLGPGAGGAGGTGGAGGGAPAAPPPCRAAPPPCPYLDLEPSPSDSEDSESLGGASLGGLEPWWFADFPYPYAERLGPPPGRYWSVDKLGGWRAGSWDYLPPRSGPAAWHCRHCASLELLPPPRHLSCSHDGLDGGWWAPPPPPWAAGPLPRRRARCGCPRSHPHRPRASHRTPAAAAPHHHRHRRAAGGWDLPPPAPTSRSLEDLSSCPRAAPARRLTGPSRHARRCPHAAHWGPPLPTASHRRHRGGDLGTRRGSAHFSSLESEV
Counter-ions that a name gives are not always drawn.
So I've got a bunch of compounds here, and I need their α, estimated cooperativity term values.
Numbers only.

Reference set, count: 3
>  <compound>
CNC1(c2ccccc2Cl)CCCCC1=O (racemic) [(±)-Ketamine, (±)-ketamine hydrochloride]

>  <valueKind>
α, estimated cooperativity term

>  <measured>
0.15

$$$$
>  <compound>
CCC(=O)C(C[C@H](C)N(C)C)(c1ccccc1)c1ccccc1

>  <valueKind>
α, estimated cooperativity term

>  <measured>
0.22

$$$$
>  <compound>
CC12CC3CC(C)(C1)CC(N)(C3)C2 [Memantine, memantine hydrochloride]

>  <valueKind>
α, estimated cooperativity term

>  <measured>
0.13

$$$$

Kindly review the next compound as well.
The compound listed as COc1ccc2c(c1)[C@]13CCCC[C@@H]1[C@H](C2)N(C)CC3 [Dextromethorphan, hydrobromide monohydrate] has a reported α, estimated cooperativity term of 0.34
